# System name: Corticotropin-releasing factor receptor 1 (Homo sapiens, UniProt P34998)
# Sequence (P34998 whole entry): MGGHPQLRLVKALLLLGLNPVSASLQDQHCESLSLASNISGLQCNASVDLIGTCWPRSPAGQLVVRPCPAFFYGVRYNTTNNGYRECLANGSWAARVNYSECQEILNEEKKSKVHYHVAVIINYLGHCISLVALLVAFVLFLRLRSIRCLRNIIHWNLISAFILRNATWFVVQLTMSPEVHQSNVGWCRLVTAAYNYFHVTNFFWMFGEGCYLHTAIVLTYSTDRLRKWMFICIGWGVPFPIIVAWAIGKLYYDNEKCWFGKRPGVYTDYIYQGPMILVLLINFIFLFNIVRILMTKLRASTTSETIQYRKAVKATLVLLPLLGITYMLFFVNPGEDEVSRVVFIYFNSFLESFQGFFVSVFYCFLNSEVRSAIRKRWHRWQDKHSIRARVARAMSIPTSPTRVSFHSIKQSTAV
# Experimental protocol: Antagonist activity at human CRF1 receptor expressed in HEK293 cells assessed as inhibition of CRF-stimulated intracellular cAMP accumulation after 30 mins by enzyme immunoassay
# Format: functional, cell-based
pIC50: −log10 of the molar value.
Note to self: values exactly at 7 are yes (1). So pIC50 at or above 7 is yes (1), below is no (0).

Req: Please check the record CCN(CC)c1ccc(C)c2nc(-c3c(OC)cc(COC)cc3OC)c(Cl)cc12 and state if its pIC50 is at or above 7.
Resp: yes (1)

Req: Test whether the molecule CCN(CCOC)c1ccc(C)c2nc(-c3c(OC)cc(COC)cc3OC)c(C)cc12 records pIC50 of 7 or higher.
Resp: yes (1)

Req: hey, is pIC50 for this one >= 7? COCCN(C)c1ccc(C)c2nc(-c3c(OC)cc(COC)cc3OC)c(C)cc12
Resp: no (0)
